// reported melting point for each item listed

Guide cases for melting point, answers given:
{"compound": "O=C(O)[C@H]1C[C@H](CCc2ccccc2)Oc2ccc(F)cc21 (relative stereo)", "result": "105 to 108 °C"}
{"compound": "CC(C)C1(COC(C)(C)C)Cc2cc(OCC(=O)O)c(Cl)c(Cl)c2C1=O (stereo not given)", "result": "148 to 149 °C"}
{"compound": "Cc1cc(C(N)=O)ncc1C(c1c(F)ccc(F)c1F)S(=O)(=O)CCC(F)(F)F (stereo not given)", "result": "190 to 191 °C"}
{"compound": "CCc1c(-c2ccc(O)cc2)c2cc(C(C)=O)c3ccc(O)c1n32", "result": "167 to 173 °C"}
{"compound": "Nc1cc2c(cc1Cl)N1CCCN=C1C2=O", "result": "> 270 °C"}
{"compound": "CON1C(=O)CC12C=CC(=O)C=C2", "result": "107 to 109 °C"}
{"compound": "O=C(Oc1ccccc1)c1cc([N+](=O)[O-])c2ccccc2c1O", "result": "157 °C"}
{"compound": "CCOc1ccc(S(=O)(=O)N2c3ccc(Cl)cc3C(O)(c3ccccc3Cl)C2C(=O)N(C)CC(=O)OC)cc1 (stereo not given)", "result": "168 to 171 °C"}
{"compound": "N#Cc1c(F)c(F)c(CO)c(F)c1F", "result": "50 °C"}

For `CC(C)(C)c1cc(C(=O)NCc2ccc([N+](=O)[O-])cc2)cc(C(C)(C)C)c1O` the compound record lists melting point as 230 to 231 °C

----------
property: melting point

{"molecule": "COc1ccc2c(c1)CCC1CCNC(=O)C(CSC)=C21 (stereo unspecified)", "property": "melting point", "result": "182 to 184 °C"}

Kindly note the recorded melting point for CCCc1nc(C(O)C(C)(C)C)c(C(N)=O)n1Cc1ccc(-c2ccccc2C(=O)O)cc1 (stereo unspecified) , which is > 160 °C

melting point measured on `O=C(c1ccccc1)c1ccc([N+](=O)[O-])c(CO)c1` = 71.3 °C

Value of measured melting point for the entry `O=C(Oc1ccccc1)N1C(C2=COc3ccccc3O2)=COc2cccnc21` : 142 °C

Reported melting point ( Cc1sc2c(c1C)C(c1ccc(Cl)cc1)=NC(CC(=O)Nc1ccncc1)c1nnc(C)n1-2 (stereo unspecified) ) = 237 to 239 °C

melting point in this record for `O=C1Nc2ccccc2C(=O)C1=O` : > 250 °C

So for CNC(CNC(=O)c1nc(Cl)c(N)nc1N)CC(=O)NCCN (stereo unspecified) , the logged melting point turned out to be 106 to 109 °C

Entry under test: `CCc1ccc(C(=O)O)c(N)c1` . Its melting point was 117 to 120 °C

Per the record, `CCOCc1nc2c(N)nc3cc(OCCc4c[nH]c5ccccc45)ccc3c2n1CC(C)(C)O` has melting point of 220 to 222 °C

The reported melting point of the molecule `CCOC(=O)c1sc(-n2ccc(O)cc2=O)nc1C` was 270 to 273 °C

Form: molecule = OC(Cn1cncn1)(c1ccc(Cl)cc1)C1(n2cnc(Cl)n2)CC1 (stereo unspecified) ; melting point = 156 °C

Sample Cc1c(O)cccc1C(=O)NC(Cc1ccccc1)C(O)C(=O)N1CSC(C)(C)C1C(=O)NC1CCCc2ccccc21 (stereo unspecified) ; melting point observed: 125 to 126 °C

So for `CN(Cc1cc(C(F)(F)F)cc(C(F)(F)F)c1)C(=O)c1c(-c2ccc(F)cc2)c2ccsc2c(=O)n1C` , the logged melting point turned out to be 196 to 197 °C

The measured melting point associated with `O=C1NCCCN1C1CCN(Cc2ccccc2)CC1` reads 178 to 180 °C

Memo: O=C(O)Cc1ccc(OCCNC(=O)C2Cc3ccccc3N2S(=O)(=O)c2ccc(-c3cc(Cl)ccc3Cl)cc2)cc1 (stereo unspecified) , reported melting point: 80 to 86 °C

melting point in this record for C=CC(O)CCCC(O)CCCC1(C)OCCO1 (stereo unspecified) : 52 to 54 °C

Per the record, COC(=O)C(=C(C)C)N1CC(NC(=O)OCc2ccccc2)C1=O (stereo unspecified) has melting point of 135 to 137 °C

// melting point value for `COc1ccc(-c2cc(C(=O)O)c(=O)n(Cc3ccc(F)cc3)n2)cc1F` : 222 to 224 °C

According to the records, this molecule O=c1[nH]c(Nc2ccccc2)nc2c1ncn2CC(O)CO (stereo unspecified) displays melting point of 312 to 315 °C

Documented melting point of `CC(C)c1cc(Oc2ccccc2)cc(C(C)C)c1N` : 71 to 72 °C

// field: melting point; key: `C#Cc1cc(C(=O)OC)ccc1S(C)(=O)=O` ; value = 95 to 98 °C
